molecular target: Tumor necrosis factor receptor superfamily member 10B (Homo sapiens) (UniProt O14763); assay: compound enhancement of TRAIL-induced cell killing – NB7 cells plus caspase-8, luminescence, panel, dose response (AID 652002); settings: NB7 neuroblastoma +caspase-8, TRAIL sensitization, luminescence viability; NB7+Caspase-8; with TRAIL, mean of runs
Sequence (O14763 whole entry, looked up): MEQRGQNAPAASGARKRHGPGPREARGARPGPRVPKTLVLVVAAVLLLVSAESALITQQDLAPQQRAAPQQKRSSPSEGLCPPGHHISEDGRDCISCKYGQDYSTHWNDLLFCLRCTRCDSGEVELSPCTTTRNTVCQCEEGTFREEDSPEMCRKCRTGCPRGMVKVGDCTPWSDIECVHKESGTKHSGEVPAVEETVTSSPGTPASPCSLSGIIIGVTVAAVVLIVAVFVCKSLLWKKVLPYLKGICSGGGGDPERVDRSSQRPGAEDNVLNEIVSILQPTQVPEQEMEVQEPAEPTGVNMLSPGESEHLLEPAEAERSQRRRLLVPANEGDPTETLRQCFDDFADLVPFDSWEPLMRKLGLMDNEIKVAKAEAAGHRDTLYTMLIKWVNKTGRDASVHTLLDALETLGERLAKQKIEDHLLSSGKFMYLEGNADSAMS
The source made the active and inactive calls. The rule behind the calls is not given here.
recorded-endpoint: EC50

test-smiles | recorded-endpoint | experimental-result
Cc1ccc2oc(-c3cccc(N)c3)nc2c1 | EC50 | inactive
Cc1nc2cc(NC(=O)c3ccco3)ccc2n1C | EC50 | > 12.5 µM (inactive)
Cc1cccc(CC(=O)Nc2cc(C)c3c(=O)oc4ccccc4c3n2)c1 | EC50 | > 12.5 µM (inactive)
CCCCCCCn1c2c(c(=N)c3ccccc31)CCC2 | EC50 | inactive
CC(C)CCn1cnc2c([nH]c3cccc(Cl)c32)c1=O | EC50 | > 12.5 µM (inactive)

# input for lookup
Lookup: Could you share which EC50 value was measured for c1ccc(-c2cnc(-c3ccccn3)nn2)cc1 ?
Found: inactive

====

Measured EC50, listed per entry for reference.
experiment: compound enhancement of TRAIL-induced cell killing – NB7 cells plus caspase-8, luminescence, panel, dose response (AID 652002); settings: NB7 neuroblastoma +caspase-8, no TRAIL, compound-alone cytotoxicity counter-screen, luminescence viability; NB7+Caspase-8; run 2; single replicate panel EC50

Lookup: Could you tell me which EC50 is on file for CCCCCCc1cc2cc(S(=O)(=O)c3ccc(F)c(Cl)c3)c(=O)oc2cc1O ?
Found: > 12.5 µM

Lookup: Record request: EC50 value, item CN(C)CCCN(C(=O)c1ccc(S(=O)(=O)N2CCCc3ccccc32)cc1)c1nc2ccc(F)cc2s1
Found: > 12.5 µM

Lookup: Would you kindly share the measured EC50 for COc1ccc(-c2cc(C(=O)N/N=C/c3cccnc3)c3ccccc3n2)cc1 ?
Found: > 12.5 µM

====

target: NB7+Caspase-8; experiment: compound enhancement of TRAIL-induced cell killing – NB7 cells plus caspase-8, luminescence, panel, dose response (AID 652002); settings: NB7 neuroblastoma +caspase-8, TRAIL sensitization, luminescence viability, with TRAIL, run 2, single replicate panel EC50
Below, each entry is listed with its recorded EC50.

compound | experimental-result
CCOC(=O)c1sc(NC(=O)c2cccc(S(=O)(=O)N3CCc4ccccc43)c2)c(C#N)c1C | > 12.5 µM
Cn1c(=O)c2c(SCC(=O)Nc3ccccc3F)nc(C3CC3)nc2n(C)c1=O | > 12.5 µM
O=C1Cc2c(-c3ccccc3)cc(-c3cccc(Cl)c3)nc2-c2ccccc2N1 | > 12.5 µM
Cc1cc2nc(-c3ccc(SCC(=O)Nc4nccs4)nc3)[nH]c2cc1C | > 12.5 µM
O=C1c2ccc(Cl)cc2S(=O)(=O)c2cccc(C(=O)N3CCC(Cc4ccccc4)CC3)c21 | > 12.5 µM
Cc1ccnc(NC(=O)Nc2ccc3c(c2)OCO3)c1 | > 12.5 µM
CCCCC1CCC(C(=O)N(CCC(C)C)c2c(N)n(CCCC)c(=O)[nH]c2=O)CC1 (configuration not stated) | > 12.5 µM
O=C1CCCc2nc(N3CCc4ccccc43)ncc21 | > 12.5 µM

Lookup: Which measured EC50 value corresponds to Cc1nn(-c2ccccc2)c2nc(N)c(C#N)c(-c3ccc(F)cc3)c12 ?
Found: > 12.5 µM

Lookup: What does the data say about its EC50? Entry: Cc1cc(N/N=C/c2ccccc2)nc(NCc2ccccc2)n1
Found: 10.9 µM

Lookup: I am curious: what EC50 value has been reported for O=C(c1cnc(Cl)c(Cl)c1)N1CCN(S(=O)(=O)c2ccc3ccccc3c2)CC1 ?
Found: > 12.5 µM

Lookup: Fill in the blank: the reported EC50 of CCN(CC)S(=O)(=O)c1ccc(C(=O)OCC(=O)Nc2ccc(-c3nc4ccc(C)cc4s3)cc2)cc1 is ____.
Found: > 12.5 µM

Data credit: PubChem BioAssay AID652002
